Target: 17β-HSD3 (Homo sapiens)
Construct: expressed in transfected cells; host or cells: HEK-293 (homogenate)
Assay: Inhibition of 17β-HSD3 in homogenated HEK-293 cells
Assay type: biochemical
Details: read-out: Homo (%) (1.0 μM), Table 4; 1.0 μM
Listing of recorded inhibition at 1 µM by entry.
Please don't drop the unit; write it after the number.

Worked set:
- C[C@]12CC[C@@]3(C[C@@H]1CC[C@@H]1[C@@H]2CC[C@]2(C)C(=O)CC[C@@H]12)CN(CCN1CCCCC1)C(=O)O3 [Compound 23c]: 21%
- C[C@]12CC[C@@]3(C[C@@H]1CC[C@@H]1[C@@H]2CC[C@]2(C)C(=O)CC[C@@H]12)CN(CCO)C(=O)O3: 38%

Now for the molecule whose inhibition at 1 µM we want.
Task: Return reported inhibition at 1 µM; argument: Cc1ccc(CN2C[C@]3(CC[C@@]4(C)[C@@H](CC[C@@H]5[C@@H]4CC[C@]4(C)C(=O)CC[C@@H]54)C3)OC2=O)cc1 [Compound 17b]
Output: 93%

---

Target: 17β-HSD3 (Homo sapiens)
Construct: expressed in transfected cells; host or cells: HEK-293 (homogenate)
Test: Inhibition of 17β-HSD3 in homogenated HEK-293 cells
Type: biochemical
Settings: read-out: Homo (%) (0.01 μM), Table 4; 0.01 μM
Listing of recorded inhibition at 0.01 µM by entry.
Answer format: numeric, % implied, no suffix.

• COc1ccc(CN2C[C@]3(CC[C@@]4(C)[C@@H](CC[C@@H]5[C@@H]4CC[C@]4(C)C(=O)CC[C@@H]54)C3)OC2=O)cc1 [Compound 17c] = 5
• Cc1ccc(CN2C[C@]3(CC[C@@]4(C)[C@@H](CC[C@@H]5[C@@H]4CC[C@]4(C)C(=O)C(C)(C)C[C@@H]54)C3)OC2=O)cc1 = 2

Task: Short answer please: inhibition at 0.01 µM, 17β-HSD3 (Homo sapiens), entry Cc1ccc(CN2C[C@]3(CC[C@@]4(C)[C@@H](CC[C@@H]5[C@@H]4CC[C@]4(C)C(=O)CC[C@@H]54)C3)OC2=O)cc1 [Compound 17b]
Output: 17

---

Listing of recorded inhibition at 0.1 µM by entry.
Target: 17β-HSD3 (Homo sapiens)
Construct: expressed in transfected cells; host or cells: HEK-293 (homogenate)
Sequence (P37058 1-310): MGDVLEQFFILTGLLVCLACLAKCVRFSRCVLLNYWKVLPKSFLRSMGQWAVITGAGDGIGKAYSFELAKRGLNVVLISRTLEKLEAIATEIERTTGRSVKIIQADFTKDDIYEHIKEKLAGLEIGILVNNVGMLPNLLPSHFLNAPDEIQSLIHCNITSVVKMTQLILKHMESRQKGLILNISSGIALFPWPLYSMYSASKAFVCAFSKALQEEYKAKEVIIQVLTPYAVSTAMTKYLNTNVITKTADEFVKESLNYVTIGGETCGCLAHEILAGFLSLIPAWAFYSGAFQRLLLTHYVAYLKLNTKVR
Assay: Inhibition of 17β-HSD3 in homogenated HEK-293 cells
Assay type: biochemical
Details: Table 3; 0.1 μM; read-out: Homo (%) (0.1 μM)
Answer format: numeric, % implied, no suffix.

• C[C@]12CC[C@](O)(CN3CCN(C(=O)c4ccc(C(F)(F)F)cc4)CC3)C[C@@H]1CC[C@@H]1[C@@H]2CC[C@]2(C)C(=O)CC[C@@H]12 [Compound 12e] = 84

Task: Return reported inhibition at 0.1 µM; argument: C[C@]12CC[C@](O)(CN3CCN(S(=O)(=O)c4ccccc4C(F)(F)F)CC3)C[C@@H]1CC[C@@H]1[C@@H]2CC[C@]2(C)C(=O)CC[C@@H]12 [Compound 14b]
Output: 92

Task: Please answer likewise for C[C@]12CC[C@](O)(CN3CCN(Cc4ccccc4C(F)(F)F)CC3)C[C@@H]1CC[C@@H]1[C@@H]2CC[C@]2(C)C(=O)CC[C@@H]12 [Compound 10b]
Output: 86
